Experiment: chemical genetic growth profiling, strain panel (AID 1159580);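 also: tested at 20 µM; growth read once vehicle control cultures reached saturation at 30 °C; 1 = growth at the plate median or of vehicle wells; lower values mean less growth of the strain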
Settings: S. cerevisiae deletion strains, growth OD, locus YJL168C, strain set2, hits give low values
About 2,000 (36%) of roughly 5,500 compounds were called active. Not shown: some 18% with an inconclusive outcome. Some of the results follow.
Listed next: entries and their corresponding normalized growth.

# Molecule, normalized growth
data = [
    ("O=C1C=CC(=O)c2c(O)cccc21", 0.988),
    ("CC(C)[C@@H]1CC[C@@H](C)C[C@H]1OC(=O)c1ccccc1", 0.986),
    ("CN1C(=O)CC[C@H]1c1cccnc1", 1),
    ("O=C1C(=O)c2ccccc2C(O)=C1C1CCC(c2ccc(Cl)cc2)CC1 (stereo not given)", 0.977),
    ("O=C(O)CC[N+](=O)[O-]", 0.99),
    ("O=C1c2ccccc2C(=O)c2ccccc21", 1),
    ("CC(=O)OC[C@@]1(O)C[C@@]23CCC4c5ccoc5CC[C@]4(C)C2CC[C@@H]1C3 (stereo not given in full)", 0.983),
    ("O=C(/C=C/c1ccccc1)c1c(O)cc(O)cc1O", 0.993),
    ("COC(=O)C(O)[C@H]1C(C)(C)[C@@H](OC(C)=O)[C@@H]2CC3=C4CC(=O)O[C@@H](c5ccoc5)[C@]4(C)CCC3[C@@]1(C)C2=O (stereo not given in full)", 0.995),
    ("C[C@]12CC[C@@H](O)C[C@H]1CCc1ccccc12", 1),
    ("O=C1C=C(O)c2ccccc2C1=O", 0.955),
    ("NC(=NCCCCCCN=C(N)N=C(N)Nc1ccc(Cl)cc1)N=C(N)Nc1ccc(Cl)cc1", 0.059),
    ("CNC(C)(C)Cc1ccccc1", 1),
    ("O=C(/C=C/c1ccccc1)c1ccc(O[C@@H]2O[C@H](CO)[C@@H](O)[C@H](O)[C@H]2O)cc1O", 0.888),
    ("O=c1c(O)c(-c2ccccc2)oc2ccc3occc3c12", 0.925),
]

====

Assay: chemical genetic growth profiling, strain panel (AID 1159580)
Details: S. cerevisiae deletion strains, growth OD, locus YPL106C, strain sse1, hits give low values
Screen size: about 5,500 compounds; about 2,000 (36%) were called active. Not shown: some 18% with an inconclusive outcome. This is one part of the list.
Items are presented alongside their recorded normalized growth.

# Compound, normalized growth
records = [
    ("Cc1cc(O)c2c(c1)C(=O)c1cccc(O)c1C2=O", 0.974),
    ("CNC(C)[C@@H]1CC[C@@H](N)[C@@H](OC2[C@@H](N)C[C@@H](N)[C@H](OC3OC[C@](C)(O)[C@H](NC)[C@H]3O)[C@H]2O)O1 (stereo partly specified)", 1),
    ("CN1CCN(C2=Nc3cc(Cl)ccc3Nc3ccccc32)CC1", 0.999),
    ("CC(NC(C)(C)C)C(=O)c1cccc(Cl)c1 (stereo unspecified)", 0.976),
    ("C=C(C)C1Cc2c(ccc3c(=O)c4c(oc23)COc2cc(OC)c(OC)cc2-4)O1 (stereo unspecified)", 0.992),
    ("O=C1c2cccc(O)c2C(=O)c2c(O)cccc21", 0.705),
    ("O=C(/C=C/c1ccccc1)c1ccc(O[C@@H]2O[C@H](CO)[C@@H](O)[C@H](O)[C@H]2O)cc1O", 0.811),
    ("CNC(=O)N(C)c1nnc(C(C)(C)C)s1", 1.02),
    ("Cn1c(=O)[nH]c2nc[nH]c2c1=O", 0.994),
    ("NC(=NCCCCCCN=C(N)N=C(N)Nc1ccc(Cl)cc1)N=C(N)Nc1ccc(Cl)cc1", 0.0968),
    ("CC(C)C1CCC(C(=O)N[C@@H](Cc2ccccc2)C(=O)O)CC1 (stereo partly specified)", 0.96),
    ("CC(=CC1CCC(C)C2CCC(C)=C12)C(=O)O (stereo unspecified)", 1.04),
    ("COc1ccc(-c2c(O)c3c(OC)c4c(cc3oc2=O)OC(C)(C)C=C4)cc1", 1.01),
    ("COC1=CC23CCCN2CCc2cc4c(cc2C3C1O)OCO4 (stereo unspecified)", 1.03),
    ("CC(=O)NS(=O)(=O)c1ccc(N)cc1", 1.01),
    ("COc1cc(OC)c2c(OC)c(-c3ccc4c(c3)OCO4)c(=O)oc2c1", 0.945),
]

====

normalized growth for assorted compounds
Experiment: chemical genetic growth profiling, strain panel (AID 1159580)
Conditions: S. cerevisiae deletion strains, growth OD, locus YFR028C, strain CDC14, hits give low values
Among all 5,500 compounds or so, about 2,000 (36%) were called active. Not shown: some 18% with an inconclusive outcome. Some of the results follow.

# Given smiles, normalized growth
data = [
    ("O=C(/C=C/c1ccc(Cl)cc1)Nc1cccc(Cl)c1", "0.968 (inactive)"),
    ("COC(=O)c1cccc(NS(=O)(=O)c2ccc(Cl)c(Cl)c2)c1", "0.973 (inactive)"),
    ("O=S(=O)(Nc1c(F)cccc1F)c1ccc(Cl)c(Cl)c1", "0.933 (inactive)"),
    ("O=C(OCCNc1ccc([N+](=O)[O-])cn1)c1ccc([N+](=O)[O-])o1", "0.91 (inactive)"),
    ("COc1cc(C2SCCS2)cc(Br)c1OC(=O)NC(=O)c1c(Cl)cccc1Cl", "0.968 (inactive)"),
    ("N/C(=N/OCc1c(F)cccc1Cl)c1ccc(Cl)cc1", "0.94 (inactive)"),
]

====

normalized growth values by entry
Assay: chemical genetic growth profiling, strain panel (AID 1159580);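 also: tested at 20 µM; growth read once vehicle control cultures reached saturation at 30 °C; 1 = growth at the plate median or of vehicle wells; lower values mean less growth of the strain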
Settings: S. cerevisiae deletion strains, growth OD, locus YMR307W, strain GAS1, hits give low values
Among all 5,500 compounds or so, about 2,000 (36%) were called active. Roughly 18% stayed inconclusive and do not appear here. Some of the results follow.

# Molecule, normalized growth
records = [
    ("COc1ccc(NC(=O)/C=C/c2ccc(Cl)cc2)cc1", 1.02),
    ("C=C[C@H]1CN2CC[C@H]1C[C@H]2[C@H](O)c1ccnc2ccccc12", 0.986),
    ("COc1cc([C@@H]2c3cc4c(cc3[C@H](O)[C@H]3COC(=O)[C@H]23)OCO4)cc(OC)c1OC", 0.994),
    ("N[C@@H](Cn1ccc(=O)[nH]c1=O)C(=O)O", 0.978),
    ("CC(=O)CCCCn1c(=O)c2c(ncn2C)n(C)c1=O", 0.995),
    ("CC(C)=CCC/C(C)=C/CO", 1.01),
    ("Nc1ccc2c3c(cccc13)C(=O)NC2=O", 0.995),
    ("C#CCn1c(=O)c2c(ncn2C)n(C)c1=O", 1.01),
    ("COc1cc(O)ccc1C(C)=O", 0.997),
    ("C[C@H]1C(=O)CCC2[C@]3(C)CC[C@@]4(C)C5CC(C)(C)CC[C@]5(C)CC[C@]4(C)C3CC[C@@]21C (stereo partly specified)", 1.04),
    ("Cn1c(=O)c2c(ncn2CCCl)n(C)c1=O", 0.996),
    ("CC(C)OC(=O)Nc1cccc(Cl)c1", 0.891),
    ("CCOC(=O)c1ccc(NC(=S)N2CCOCC2)cc1", 0.965),
    ("CCCCCC/C=C\\CCCCCCCc1cccc(O)c1C(=O)O", 1.01),
    ("COc1ccc(-c2c(O)c3c(OC)c4c(cc3oc2=O)OC(C)(C)C=C4)cc1", 1.1),
    ("CCOC(=O)CC(=O)CSc1nnc(N)s1", 0.985),
]

====

Recorded normalized growth, one value per entry.
Assay: chemical genetic growth profiling, strain panel (AID 1159580);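 also: tested at 20 µM; growth read once vehicle control cultures reached saturation at 30 °C; 1 = growth at the plate median or of vehicle wells; lower values mean less growth of the strain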
Settings: S. cerevisiae deletion strains, growth OD, locus YJL128C, strain PBS2, hits give low values
Screen size: about 5,500 compounds; about 2,000 (36%) were called active. Roughly 18% stayed inconclusive and do not appear here. The list shows a part of the results.

# Compound, normalized growth
rows = [
    ("O=[N+]([O-])c1cc(C(F)(F)F)ccc1Sc1n[nH]c(-c2cc(Cl)cc(Cl)c2)n1", 0.811),
    ("CC1SC(c2cccnc2)N(c2ccc(Cl)cc2)C1=O (stereo not drawn)", 0.987),
    ("CC1SC(c2cccnc2)N(c2ccc(F)cc2F)C1=O (stereo not drawn)", 0.988),
]

====

Experiment: chemical genetic growth profiling, strain panel (AID 1159580);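 also: tested at 20 µM; growth read once vehicle control cultures reached saturation at 30 °C; 1 = growth at the plate median or of vehicle wells; lower values mean less growth of the strain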
Details: S. cerevisiae deletion strains, growth OD, locus YBL061C, strain skt5, hits give low values
Out of some 5,500 compounds screened, about 2,000 (36%) were called active. Not shown: some 18% with an inconclusive outcome. Some of the results follow.

# Compound, normalized growth
records = [
    ("CC(=O)O[C@H]1CC2CCC3C(CC[C@@]4(C)C3C[C@H]([N+]3(C)CCCCC3)[C@@H]4OC(C)=O)[C@@]2(C)C[C@@H]1N1CCCCC1 (stereo partly specified)", 1.02),
    ("COc1ccc(NS(=O)(=O)c2ccc(N)cc2)nn1", 0.992),
    ("CCCCCC/C=C\\CCCCCCCc1cccc(O)c1C(=O)O", 0.98),
    ("CC(C)N1C(=O)c2ccccc2NS1(=O)=O", 0.973),
    ("Cc1cc2nc3c(=O)[nH]c(=O)nc-3n(CC(O)C(O)C(O)CO)c2cc1C (stereo unspecified)", 0.988),
    ("CC(C)[C@@H]1CC[C@@H](C)C[C@H]1OC(=O)c1ccccc1", 1.01),
]
